tested-on: UniProt P22303
Sequence (P22303 32-614): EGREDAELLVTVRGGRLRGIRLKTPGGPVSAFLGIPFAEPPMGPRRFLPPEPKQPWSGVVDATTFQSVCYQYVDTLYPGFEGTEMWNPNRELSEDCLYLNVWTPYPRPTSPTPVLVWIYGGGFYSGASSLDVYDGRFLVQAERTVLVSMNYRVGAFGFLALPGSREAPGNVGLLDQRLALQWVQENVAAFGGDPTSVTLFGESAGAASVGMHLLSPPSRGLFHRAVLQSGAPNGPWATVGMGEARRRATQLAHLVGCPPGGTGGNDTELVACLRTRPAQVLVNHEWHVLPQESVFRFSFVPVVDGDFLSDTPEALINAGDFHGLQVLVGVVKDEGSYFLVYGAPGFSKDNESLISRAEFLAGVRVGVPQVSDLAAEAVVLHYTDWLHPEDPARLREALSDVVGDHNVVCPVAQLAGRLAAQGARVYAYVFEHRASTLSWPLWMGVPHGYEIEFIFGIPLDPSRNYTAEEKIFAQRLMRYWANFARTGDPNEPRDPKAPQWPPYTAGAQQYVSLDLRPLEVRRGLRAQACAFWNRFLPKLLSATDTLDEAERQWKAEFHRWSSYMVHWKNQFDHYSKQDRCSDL
experimental-endpoint: IC50 (µM)
Just the number in µM, nothing appended.

> print(dat)
                                   compound  experimental.endpoint  recorded.result
1  COc1c(O)cc2oc3cc(O)c(CC=C(C)C)c(O)c3c(=O)c2c1CC=C(C)C [α-M, reference compound]                   IC50             34.3
2  CCN(C(=O)Oc1cc2oc3cc4c(c(O)c3c(=O)c2c(CC=C(C)C)c1OC)C=CC(C)(C)O4)c1ccccc1 [AMG-2]                   IC50             35.1
3  COc1c(OC(=O)N(C)c2ccccc2C)cc2oc3cc4c(c(O)c3c(=O)c2c1CC=C(C)C)C=CC(C)(C)O4 [AMG-3]                   IC50             32.9

Case COc1c(OC(=O)N(C)c2ccccc2)cc2oc3cc4c(c(O)c3c(=O)c2c1CC=C(C)C)C=CC(C)(C)O4 [AMG-1] , UniProt P22303, IC50 recorded as 52.6

The values you see were collected from paper PMC7203693.
